Recorded Dmax for the following compounds
Target: IKZF2 (Homo sapiens (Human), UniProt Q96SW2+Q9UKS7)
Sequence (Q9UKS7 whole entry): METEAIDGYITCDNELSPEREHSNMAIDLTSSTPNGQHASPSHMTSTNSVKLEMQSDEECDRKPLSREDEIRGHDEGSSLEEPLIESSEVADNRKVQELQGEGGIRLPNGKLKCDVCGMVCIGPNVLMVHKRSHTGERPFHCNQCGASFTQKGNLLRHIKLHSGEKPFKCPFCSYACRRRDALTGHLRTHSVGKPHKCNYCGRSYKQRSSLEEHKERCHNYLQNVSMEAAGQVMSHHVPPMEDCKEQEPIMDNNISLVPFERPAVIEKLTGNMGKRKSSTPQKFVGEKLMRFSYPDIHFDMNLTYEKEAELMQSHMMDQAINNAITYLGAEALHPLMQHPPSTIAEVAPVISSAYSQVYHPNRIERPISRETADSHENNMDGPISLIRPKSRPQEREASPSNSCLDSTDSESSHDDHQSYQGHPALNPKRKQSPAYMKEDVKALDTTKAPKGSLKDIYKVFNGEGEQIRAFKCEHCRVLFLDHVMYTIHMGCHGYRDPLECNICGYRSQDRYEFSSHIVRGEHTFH
Sequence (Q96SW2 whole entry): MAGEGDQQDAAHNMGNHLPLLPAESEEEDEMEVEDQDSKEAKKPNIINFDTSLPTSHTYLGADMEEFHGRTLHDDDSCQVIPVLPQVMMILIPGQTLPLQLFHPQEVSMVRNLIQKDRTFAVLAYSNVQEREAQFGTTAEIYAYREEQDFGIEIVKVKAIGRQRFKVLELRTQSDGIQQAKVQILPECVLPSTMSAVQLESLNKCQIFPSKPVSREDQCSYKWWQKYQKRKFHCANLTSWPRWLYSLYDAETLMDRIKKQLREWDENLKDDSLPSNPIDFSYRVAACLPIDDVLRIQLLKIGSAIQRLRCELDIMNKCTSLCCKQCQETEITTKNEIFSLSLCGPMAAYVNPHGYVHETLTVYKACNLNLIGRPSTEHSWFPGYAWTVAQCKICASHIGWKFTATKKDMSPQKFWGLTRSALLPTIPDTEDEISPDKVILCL
Sequence (Q16531 2-1140 partner): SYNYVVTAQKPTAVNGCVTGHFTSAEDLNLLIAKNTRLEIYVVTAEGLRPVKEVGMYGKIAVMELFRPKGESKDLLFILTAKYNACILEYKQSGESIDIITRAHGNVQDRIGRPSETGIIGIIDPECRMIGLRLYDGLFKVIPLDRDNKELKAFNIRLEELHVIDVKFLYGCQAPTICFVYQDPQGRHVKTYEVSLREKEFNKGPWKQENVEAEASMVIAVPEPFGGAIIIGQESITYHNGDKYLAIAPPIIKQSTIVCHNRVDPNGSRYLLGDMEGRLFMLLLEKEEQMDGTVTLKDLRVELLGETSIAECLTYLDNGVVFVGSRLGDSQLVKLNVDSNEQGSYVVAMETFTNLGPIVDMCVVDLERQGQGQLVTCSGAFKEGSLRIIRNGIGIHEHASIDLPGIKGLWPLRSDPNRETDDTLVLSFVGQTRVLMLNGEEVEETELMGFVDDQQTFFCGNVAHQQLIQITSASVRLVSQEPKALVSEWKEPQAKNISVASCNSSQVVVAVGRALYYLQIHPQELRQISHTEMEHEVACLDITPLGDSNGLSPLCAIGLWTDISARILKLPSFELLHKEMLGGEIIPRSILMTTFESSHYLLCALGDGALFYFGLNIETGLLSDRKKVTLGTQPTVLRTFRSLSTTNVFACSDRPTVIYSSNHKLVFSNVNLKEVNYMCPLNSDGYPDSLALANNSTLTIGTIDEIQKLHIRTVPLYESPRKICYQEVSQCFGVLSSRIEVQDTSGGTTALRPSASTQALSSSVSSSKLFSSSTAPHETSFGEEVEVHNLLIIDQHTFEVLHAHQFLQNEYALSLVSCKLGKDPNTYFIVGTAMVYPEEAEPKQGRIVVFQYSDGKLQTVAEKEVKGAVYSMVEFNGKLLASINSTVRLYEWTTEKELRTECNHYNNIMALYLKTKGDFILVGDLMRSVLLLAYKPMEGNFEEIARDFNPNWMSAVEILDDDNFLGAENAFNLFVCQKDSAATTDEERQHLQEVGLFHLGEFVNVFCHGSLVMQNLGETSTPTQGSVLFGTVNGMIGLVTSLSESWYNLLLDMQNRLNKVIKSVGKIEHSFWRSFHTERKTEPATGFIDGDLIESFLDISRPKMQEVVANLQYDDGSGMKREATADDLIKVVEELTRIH
Assay: In vitro IKZF2 FACS Assay in Jurkat cells
Format: cell-based
Settings: 24 hrs, maximal degradation percentage
endpoint: Dmax

- Cn1cc(-n2ccc3c(CN4CCCC4)cc(-c4ccc5c(c4)CN(C4CCC(=O)NC4=O)C5=O)nc32)cn1 (centres unmarked): > 80%
- O=C1CCC(N2Cc3cc(-c4nc(CN5CCCC5)c5ccn(C6CS(=O)(=O)C6)c5n4)ccc3C2=O)C(=O)N1 (centres unmarked): 40 to 60%
- O=C1CCC(N2Cc3c(ccc(-c4nc5c(ccn5C5COC5)c(CN5CCCC5)c4Cl)c3F)C2=O)C(=O)N1 (centres unmarked): > 80%
- O=C1CCC(N2Cc3c(ccc(-c4cc(CN5CCCC5)c5ccn(C6CS(=O)(=O)C6)c5n4)c3F)C2=O)C(=O)N1 (centres unmarked): > 80%
- Cn1ccc2c(CN3CCC3)cc(-c3ccc4c(c3)CN(C3CCC(=O)NC3=O)C4=O)nc21 (centres unmarked): 60 to 80%
- Cc1cn(C2COC2)c2nc(-c3ccc4c(c3)CN(C3CCC(=O)NC3=O)C4=O)cc(CN3CCCC3)c12 (centres unmarked): > 80%
- Cn1ccc2c(CN3CCCC3)cc(-c3ccc4c(c3)CN(C3CCC(=O)NC3=O)C4=O)nc21 (centres unmarked): > 80%
- O=C1CCC(N2Cc3c(ccc(-c4cc(CN5CCCC5)c5[nH]nc(NC6CCC6)c5n4)c3F)C2=O)C(=O)N1 (centres unmarked): > 80%

----------
Recorded DC50 for the following molecules
Target: IKZF2 (Homo sapiens (Human), UniProt Q96SW2+Q9UKS7)
Test: In vitro IKZF2 HiBit Assay (HEK293T Flp-in-HiBiT cells)
Format: cell-based
Details: HEK293T Flp-in-HiBiT cells, 6 hrs incubation; read-out: IKZF2 HiBit DC50
endpoint: DC50

- Cc1nc2nc(-c3ccc4c(c3)CN(C3CCC(=O)NC3=O)C4=O)cc(CN3CCCC3)c2o1 (stereo not shown): 1 to 10 nM
- O=C1CCC(N2Cc3cc(-c4ccc(CN5CCCC5)c5cncn45)ccc3C2=O)C(=O)N1 (stereo not shown): 1000 to 10000 nM
- COC1CCN(Cc2cc(-c3ccc4c(c3)CN(C3CCC(=O)NC3=O)C4=O)nc3c2ccn3C)CC1 (stereo not shown): < 1 nM
- O=C1CCC(N2Cc3cc(-c4cc(CN5CCCC5)c5nccc(NC6CC6)c5n4)ccc3C2=O)C(=O)N1 (stereo not shown): 10 to 100 nM
- O=C1CCC(N2Cc3c(ccc(-c4cc(CN5CCCC5)c5ccn(C6CS(=O)(=O)C6)c5n4)c3F)C2=O)C(=O)N1 (stereo not shown): 1 to 10 nM
- O=C1CCC(N2Cc3cc(-c4cc(CN5CCCC5C(F)(F)F)c5ccn(C6COC6)c5n4)ccc3C2=O)C(=O)N1 (stereo not shown): 10 to 100 nM
- Cn1ccc2c(CN3CC4COCC4C3)cc(-c3ccc4c(c3)CN(C3CCC(=O)NC3=O)C4=O)nc21 (stereo not shown): < 1 nM

----------
Recorded DC50 for the following compounds
Molecular target: IKZF2 (Homo sapiens (Human), UniProt Q96SW2+Q9UKS7)
Assay: In vitro IKZF2 HiBit Assay (HEK293T Flp-in-HiBiT cells)
Type: cell-based
Settings: HEK293T Flp-in-HiBiT cells, 6 hrs incubation; read-out: IKZF2 HiBit DC50
Protocol: In Vitro IKZF2 HiBit Assay The HiBiT protein tagging system was applied to modified HEK293T Flp-in-HiBiT cells (polyclone) via a CRISPR/Cas9-mediated insertion of the HiBiT peptide tag (Promega™) to the N-terminus of the IKZF2 gene locus (Neon™ transfection system). Test and reference compounds are diluted from 1 mM at 3 folds for 11 doses. […] The amount of Nano-Glo® HiBiT lytic reagent needed to perform the desired experiments is calculated. […] After briefly centrifuge, the plate is read on Envision. […]
endpoint: DC50

* Nc1n[nH]c2c(CN3CCC(F)C3)cc(-c3ccc4c(c3)CN(C3CCC(=O)NC3=O)C4=O)nc12 (stereo not shown) | 10 to 100 nM
* O=C1CCC(N2Cc3cc(-c4cc(CN5CC6COCC(C6)C5)c5cc[nH]c5n4)ccc3C2=O)C(=O)N1 (stereo not shown) | 1 to 10 nM
* CN1C2CCC1CN(Cc1cc(-c3ccc4c(c3)CN(C3CCC(=O)NC3=O)C4=O)nc3c1ccn3C)C2 (stereo not shown) | 1 to 10 nM
* CN1CC(n2ccc3c(CN4CCCC4)cc(-c4ccc5c(c4)CN(C4CCC(=O)NC4=O)C5=O)nc32)C1 (stereo not shown) | 1 to 10 nM
